Ki for assorted compounds
- Target under test: STK10 (Homo sapiens, UniProt O94804)
- Sequence (O94804 36-294 limits assumed): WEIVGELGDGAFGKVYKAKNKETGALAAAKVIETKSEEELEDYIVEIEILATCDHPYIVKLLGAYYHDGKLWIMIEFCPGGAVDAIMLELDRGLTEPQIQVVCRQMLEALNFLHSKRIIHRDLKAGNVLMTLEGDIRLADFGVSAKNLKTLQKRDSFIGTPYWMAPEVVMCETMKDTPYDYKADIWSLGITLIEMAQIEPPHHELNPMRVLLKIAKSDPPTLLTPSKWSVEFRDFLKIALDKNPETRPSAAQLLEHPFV
- Assay details: biochemical

Sample answers from the record:
Fc1ccc(Nc2ccnc3ccc(Br)cc23)cc1 | 21 µM
Fc1cc(Nc2ccnc3ccc(Br)cc23)cc(F)c1F | > 55 µM
Fc1ccccc1Nc1ccnc2ccc(Br)cc12 | 30 µM
Fc1ccc(Nc2ncnc3ccc(Br)cc23)cc1 | > 55 µM
Fc1ccc(Nc2ccnc3ccc(Br)cc23)cc1F | > 55 µM

# Ki of Brc1cccc(Nc2ccnc3ccc(Br)cc23)c1 = > 55 µM

====

- Target under test: STK10 (Homo sapiens)
- Assay details: biochemical
Measurement type: Ki
The reply must contain the numeric value and, after it, the unit.

C#Cc1cc(Nc2ncnc3cc(OC)c(OC)cc23)ccc1F | 47 nM
C#Cc1cc(Nc2ncnc3cc(C#N)ccc23)ccc1F | 870 nM
C#Cc1cc(Nc2ncnc3cc(I)ccc23)ccc1F | 110 nM

# Ki of C#Cc1ccc(F)c(Nc2ncnc3cc(I)ccc23)c1 = 250 nM
